Tested on: KRAS-mutant PDC complex spheroid viability;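 note: viability read after seven days of compound exposure; 100% = DMSO vehicle-treated spheroids so lower means less viable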
assay.name: Anticancer human tumor 186277-243-T-J2-PDC patient-derived colon adenocarcinoma cell line growth inhibition [KRAS2]
measurement.conditions: second compound 0.316 µM; first compound 0.0316 µM; stronger effect = lower value
Catalogue of viability, T/C values

Some compounds with recorded viability, T/C:
CC(C)n1nc(-c2ccc3oc(N)nc3c2)c2c(N)ncnc21 + C=CC(=O)N1CCN(c2nc(=O)n(-c3c(C)ccnc3C(C)C)c3nc(-c4c(O)cccc4F)c(F)cc23)C(C)C1 ... 34.2%
Cn1nccc1Nc1nccc(-c2cc3c(s2)C(C)(C)N(CCN2CCOCC2)C3=O)n1 + C=CC(=O)N1CCN(c2nc(OCC3CCCN3C)nc3c2CCN(c2cccc4cccc(C)c24)C3)CC1CC#N ... 101%
Cn1nccc1Nc1nccc(-c2cc3c(s2)C(C)(C)N(CCN2CCOCC2)C3=O)n1 + C=CC(=O)N1CCN(c2nc(=O)n(-c3c(C)ccnc3C(C)C)c3nc(-c4c(O)cccc4F)c(F)cc23)C(C)C1 ... 92.9%

Incoming: Give its viability, T/C value. Item: CN(C)C/C=C/C(=O)Nc1cc2c(Nc3ccc(F)c(Cl)c3)ncnc2cc1O[C@H]1CCOC1 + COc1cc2nc(C)nc(NC(C)c3cc(N)cc(C(F)(F)F)c3)c2cc1OC1CCOC1
Outgoing: 99.2%

Incoming: What viability, T/C value was documented for this compound, CN(C)C/C=C/C(=O)Nc1cc2c(Nc3ccc(F)c(Cl)c3)ncnc2cc1O[C@H]1CCOC1 + C=CC(=O)N1CCN(c2nc(OCC3CCCN3C)nc3c2CCN(c2cccc4cccc(C)c24)C3)CC1CC#N ?
Outgoing: 111%

Incoming: Which viability, T/C value is on record for CC1(C)CCC(CN2CCN(c3ccc(C(=O)NS(=O)(=O)c4ccc(NCC5CCOCC5)c([N+](=O)[O-])c4)c(Oc4cnc5[nH]ccc5c4)c3)CC2)=C(c2ccc(Cl)cc2)C1 + CNCc1ccccc1-c1csc(C(C)Nc2nc(C)nc3cc(OC)c(OC)cc23)c1 ?
Outgoing: 115%

Incoming: What value of measured viability, T/C is listed for Cn1ncnc1[C@H]1c2n[nH]c(=O)c3cc(F)cc(c23)N[C@@H]1c1ccc(F)cc1 + C=CC(=O)N1CCN(c2nc(=O)n(-c3c(C)ccnc3C(C)C)c3nc(-c4c(O)cccc4F)c(F)cc23)C(C)C1 ?
Outgoing: 87.8%

Incoming: For the compound COC(=O)c1ccc2c(C(=Nc3ccc(N(C)C(=O)CN4CCN(C)CC4)cc3)c3ccccc3)c(O)[nH]c2c1 + CC1OCC2(CCN(c3cnc(Sc4ccnc(N)c4Cl)c(N)n3)CC2)C1N , what viability, T/C is on record?
Outgoing: 108%

Incoming: Would you mind telling me what viability, T/C value was observed for O=C(c1cc(Cc2n[nH]c(=O)c3ccccc23)ccc1F)N1CCN(C(=O)C2CC2)CC1 + COc1cc2nc(C)nc(NC(C)c3cc(N)cc(C(F)(F)F)c3)c2cc1OC1CCOC1 ?
Outgoing: 105%

Incoming: Endpoint output: viability, T/C of CC1(C)CCC(CN2CCN(c3ccc(C(=O)NS(=O)(=O)c4ccc(NCC5CCOCC5)c([N+](=O)[O-])c4)c(Oc4cnc5[nH]ccc5c4)c3)CC2)=C(c2ccc(Cl)cc2)C1 + COc1cc2nc(C)nc(NC(C)c3cc(N)cc(C(F)(F)F)c3)c2cc1OC1CCOC1 . Value?
Outgoing: 92.5%

Value source: PubChem BioAssay AID1963875
